# protocol details: qHTS assay to identify small molecule antagonists of the thyroid receptor (TR) signaling pathway (AID 743065); also: nearly all actives have a fitted effect of over 55% in size
# study conditions: GH3.TRE-Luc, T3-stimulated luciferase inhibition, 23.5 h; series mostly up to 70.3 µM
Records with an inconclusive call do not appear. The source made the active and inactive calls. Calls follow the shape of the dose curve; as a rule, active = well fitted inhibition curve with a large enough effect in the repeat runs; inconclusive = weak or mixed curves; inactive = no such curve, though single readings can be large or run the other way.
In this exercise, the only acceptable responses are active, inactive

The following molecules have reported results that may help.
CC(=O)CC(=O)Nc1ccc(S(=O)(=O)O)cc1 :: inactive
Cc1ccc(O)c(N)c1 :: active
O=[N+]([O-])c1cccc(C(F)(F)F)c1 :: inactive
COc1cccc(OC)c1C(=O)O :: inactive
O=S(=O)(O)c1ccc(Nc2nc(Nc3ccc(/C=C/c4ccc(Nc5nc(Nc6ccc(S(=O)(=O)O)cc6)nc(N(CCO)CCO)n5)cc4S(=O)(=O)O)c(S(=O)(=O)O)c3)nc(N(CCO)CCO)n2)cc1 :: inactive

Look up the recorded call for C=CCCC(=O)/C=C/C1C(C)=CCCC1(C)C (configuration not stated) in this test. active

Just curious, what result did NC(=O)c1cccc([N+](=O)[O-])c1 get here? inactive

Per the records of this test, what outcome belongs to Clc1ccnc(Cl)n1 ? inactive

Please let me know the test result on file for CC(C)NC[C@@H](O)COc1ccc(CC(N)=O)cc1 . inactive

Please indicate how the test categorized CC(C(=O)O)c1ccc2c(c1)[nH]c1ccc(Cl)cc12 (configuration not stated) . inactive

// param item: CC(=O)c1ccc(C(C)=O)cc1 ; yields the recorded call inactive

I'd appreciate the recorded outcome for CC[N+](CC)(CC)CCOC(=O)C(C1CCCC1)C1CCCC1 from this test. inactive
